Origin of measurements: the supplement of paper PMC10065799

For each record, write down the corresponding phosphorylation enrichment.
assayed.target: Fyn (UniProt P06241)
Sequence (P06241 whole entry, looked up): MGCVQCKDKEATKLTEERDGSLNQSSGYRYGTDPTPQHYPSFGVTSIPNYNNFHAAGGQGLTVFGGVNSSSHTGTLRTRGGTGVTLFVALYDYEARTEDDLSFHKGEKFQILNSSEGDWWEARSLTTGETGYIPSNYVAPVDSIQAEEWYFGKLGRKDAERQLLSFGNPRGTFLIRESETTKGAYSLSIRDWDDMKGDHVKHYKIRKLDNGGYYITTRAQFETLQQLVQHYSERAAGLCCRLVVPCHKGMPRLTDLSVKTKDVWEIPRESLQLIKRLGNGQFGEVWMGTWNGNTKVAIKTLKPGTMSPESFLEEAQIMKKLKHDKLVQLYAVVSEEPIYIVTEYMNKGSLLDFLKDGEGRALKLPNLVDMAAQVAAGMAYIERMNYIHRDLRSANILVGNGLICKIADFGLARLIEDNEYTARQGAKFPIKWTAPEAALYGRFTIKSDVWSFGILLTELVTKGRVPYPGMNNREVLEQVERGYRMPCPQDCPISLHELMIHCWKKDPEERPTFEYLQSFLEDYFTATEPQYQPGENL
experimental.details: phosphorylation enrichment, bacterial display (enrichment ratio); higher = better substrate or ligand; peptides without Tyr show the background
Give bare numbers.

I have 2 sequences here; please give me phosphorylation enrichment for each one.
1. SLDLSYYTTSS [EMD_Y181_P183T]
2. DLAAQYTTVGH [SGSH_Y240_R245H]

OUT:
1. 0.53
2. 0.585

Lab note: each sequence below needs its phosphorylation enrichment filled in.
1. LNECHYGALIG [BPGM_Y92_R90C]
2. SYNNKYGMVAQ [APOB_Y276_K273N]
3. RVFIKYLPEWT [PSEN1_Y240_L235R]
4. ERIELYELDKK [PMM2_Y145_F144L]
5. LDVGEYCVPRG [BEX1_Y43_A40V]
6. SVESPYGSVTF [NDRG2_Y47_T45S]
7. ARLDEYIAIAK [RCOR3_Y46_K42R]

OUT:
[4.07, 0.428, 0.735, 0.586, 1.09, 7.99, 0.391]

Batch lookup, phosphorylation enrichment per entry.
1. VLAHKYHGGGG [HBB_Y146_A141V]
2. YGMSTYITRED [FNDC3B_Y180]

OUT:
0.366
0.852

====

Give SH2 binding enrichment for every item shown.
assayed.target: SHP2-C SH2;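 also: peptide library displayed on the E. coli surface as eCPX fusions, selected cells deep-sequenced, score is each peptide's frequency after selection divided by its frequency in the input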
experimental.details: SH2 binding enrichment of the phosphorylated peptide, bacterial display (enrichment ratio); higher = better substrate or ligand; peptides without Tyr show the background
Numbers only.

Solved cases (4 shown):
IN: Would you kindly share the measured SH2 binding enrichment for PSRKDYETFQS [CTNND2_Y1154_P1159S_YF] ?
OUT: 0.55

IN: Then this sequence: PGIRMYRVQFN [LRFN1_Y454_Q455R_YF]
OUT: 0.606

IN: # iterate: ERIELYELDKK [PMM2_Y145_F144L]
OUT: 0.635

IN: // repeat for QEMMEYRRQIQ [DES_Y324_H326R] and report
OUT: 0.734

Items follow; give SH2 binding enrichment for each.
1. EFNINYNNEPP [THG1L_Y228_L232P]
2. PLDGEYLTLQI [TP53_Y327_F328L]
3. RRIHSYRGFLW [VHL_Y112_H115Y_YF]

OUT:
0.528
0.555
0.666

====

assayed.target: Fes (UniProt P07332)
Sequence (P07332 whole entry, looked up): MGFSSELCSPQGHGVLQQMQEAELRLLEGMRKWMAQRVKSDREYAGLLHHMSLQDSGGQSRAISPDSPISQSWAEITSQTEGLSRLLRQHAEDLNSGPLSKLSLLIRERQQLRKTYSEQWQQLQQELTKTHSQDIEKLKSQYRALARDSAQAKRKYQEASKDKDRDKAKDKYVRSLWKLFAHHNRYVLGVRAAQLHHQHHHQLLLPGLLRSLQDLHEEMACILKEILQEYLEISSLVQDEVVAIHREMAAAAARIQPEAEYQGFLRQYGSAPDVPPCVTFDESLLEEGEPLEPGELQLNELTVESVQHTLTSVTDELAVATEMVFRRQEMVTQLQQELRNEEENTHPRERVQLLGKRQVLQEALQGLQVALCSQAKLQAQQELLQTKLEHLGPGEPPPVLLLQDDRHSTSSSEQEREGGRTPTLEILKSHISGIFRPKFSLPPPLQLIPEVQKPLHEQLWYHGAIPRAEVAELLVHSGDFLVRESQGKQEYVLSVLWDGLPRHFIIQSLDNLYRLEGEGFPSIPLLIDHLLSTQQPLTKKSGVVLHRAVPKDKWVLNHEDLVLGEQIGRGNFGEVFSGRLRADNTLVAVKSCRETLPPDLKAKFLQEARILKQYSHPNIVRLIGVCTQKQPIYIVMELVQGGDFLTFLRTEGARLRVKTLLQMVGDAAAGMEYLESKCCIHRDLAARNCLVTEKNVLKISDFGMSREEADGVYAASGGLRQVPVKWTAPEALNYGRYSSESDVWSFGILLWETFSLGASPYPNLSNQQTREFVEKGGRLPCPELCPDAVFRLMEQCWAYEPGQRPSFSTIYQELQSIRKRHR
experimental.details: phosphorylation enrichment, bacterial display (enrichment ratio); higher = better substrate or ligand; peptides without Tyr show the background
measurement.kind: phosphorylation enrichment

IN: Form entry - test system: Fes (UniProt P07332); read-out: phosphorylation enrichment; sequence: PSELFYSKISP [SMG1_Y2254_G2258S_YF]
OUT: 0.972

IN: Next: VFSTDCFRVGG [NTRK2_Y706_Y706C_YF]
OUT: 0.971

IN: Queued: VSSPKYGSDDE [TMCC2_Y473]
OUT: 1.01

IN: Lookup ELCSEYHKSRK [SPINK5_Y440_R441H]
OUT: 1.02

# ---- query sequence ----
IN: Can you look up phosphorylation enrichment on Fes (UniProt P07332) for IEPVIDVVQRR [ANOS1_Y217_Y217D] ?
OUT: 0.98

====

assayed.target: FGFR3 (UniProt P22607)
Sequence (P22607 whole entry, looked up): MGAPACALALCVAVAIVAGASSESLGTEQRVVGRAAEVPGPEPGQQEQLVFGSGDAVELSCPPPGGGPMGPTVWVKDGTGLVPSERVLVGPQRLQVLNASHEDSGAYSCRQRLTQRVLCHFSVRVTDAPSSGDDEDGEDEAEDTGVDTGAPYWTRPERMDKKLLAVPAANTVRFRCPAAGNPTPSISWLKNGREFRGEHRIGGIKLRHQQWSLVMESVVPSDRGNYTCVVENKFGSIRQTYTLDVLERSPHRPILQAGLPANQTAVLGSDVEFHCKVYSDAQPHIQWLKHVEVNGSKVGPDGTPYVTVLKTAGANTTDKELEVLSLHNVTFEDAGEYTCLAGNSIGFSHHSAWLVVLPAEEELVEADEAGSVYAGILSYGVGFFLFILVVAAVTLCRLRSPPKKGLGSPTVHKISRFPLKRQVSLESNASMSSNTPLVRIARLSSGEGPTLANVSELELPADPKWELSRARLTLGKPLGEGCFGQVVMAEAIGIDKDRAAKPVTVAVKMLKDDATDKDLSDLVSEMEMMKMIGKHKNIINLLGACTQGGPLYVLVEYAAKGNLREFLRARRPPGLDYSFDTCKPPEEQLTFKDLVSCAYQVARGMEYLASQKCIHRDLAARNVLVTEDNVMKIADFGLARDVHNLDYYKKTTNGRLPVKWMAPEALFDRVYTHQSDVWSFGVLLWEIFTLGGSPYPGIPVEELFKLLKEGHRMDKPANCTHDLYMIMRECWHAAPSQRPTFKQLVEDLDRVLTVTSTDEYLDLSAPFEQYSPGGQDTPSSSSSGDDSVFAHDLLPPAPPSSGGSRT
experimental.details: phosphorylation enrichment, bacterial display (enrichment ratio); higher = better substrate or ligand; peptides without Tyr show the background
Parameter class (string): assigned from measured phosphorylation enrichment. Ranges: band 1: < 0.6; band 2: ≥ 0.6 and < 0.8; band 3: ≥ 0.8

IN: Would you mind sorting FEDTLYTVLHR [UNC13D_Y61_A59T_YF] into the appropriate category?
OUT: band 3

IN: Now the same for ARLDEYIAIAK [RCOR3_Y46_K42R]
OUT: band 1

IN: Would you mind doing YGMSTYITRED [FNDC3B_Y180] as well?
OUT: band 2

IN: What about this sequence? YIGVTYKNKED [PDGFRA_Y993_E996K]
OUT: band 2

Next:
IN: Hey, which category is DPYHVYIKNRV [KCNE3_Y95] in, do you know?
OUT: band 2

IN: Next: TAGFSYEKWEI [TEC_Y360]
OUT: band 2

IN: And then KKFVPYYDLFM [IPO5_Y530_E525K] , what is it?
OUT: band 3

IN: Now the sequence HRGFLYLAIEY [TEK_Y899_Y897F]
OUT: band 3
